Measurement Target: hERG (Homo sapiens, UniProt Q12809)
Sequence (Q12809 whole entry): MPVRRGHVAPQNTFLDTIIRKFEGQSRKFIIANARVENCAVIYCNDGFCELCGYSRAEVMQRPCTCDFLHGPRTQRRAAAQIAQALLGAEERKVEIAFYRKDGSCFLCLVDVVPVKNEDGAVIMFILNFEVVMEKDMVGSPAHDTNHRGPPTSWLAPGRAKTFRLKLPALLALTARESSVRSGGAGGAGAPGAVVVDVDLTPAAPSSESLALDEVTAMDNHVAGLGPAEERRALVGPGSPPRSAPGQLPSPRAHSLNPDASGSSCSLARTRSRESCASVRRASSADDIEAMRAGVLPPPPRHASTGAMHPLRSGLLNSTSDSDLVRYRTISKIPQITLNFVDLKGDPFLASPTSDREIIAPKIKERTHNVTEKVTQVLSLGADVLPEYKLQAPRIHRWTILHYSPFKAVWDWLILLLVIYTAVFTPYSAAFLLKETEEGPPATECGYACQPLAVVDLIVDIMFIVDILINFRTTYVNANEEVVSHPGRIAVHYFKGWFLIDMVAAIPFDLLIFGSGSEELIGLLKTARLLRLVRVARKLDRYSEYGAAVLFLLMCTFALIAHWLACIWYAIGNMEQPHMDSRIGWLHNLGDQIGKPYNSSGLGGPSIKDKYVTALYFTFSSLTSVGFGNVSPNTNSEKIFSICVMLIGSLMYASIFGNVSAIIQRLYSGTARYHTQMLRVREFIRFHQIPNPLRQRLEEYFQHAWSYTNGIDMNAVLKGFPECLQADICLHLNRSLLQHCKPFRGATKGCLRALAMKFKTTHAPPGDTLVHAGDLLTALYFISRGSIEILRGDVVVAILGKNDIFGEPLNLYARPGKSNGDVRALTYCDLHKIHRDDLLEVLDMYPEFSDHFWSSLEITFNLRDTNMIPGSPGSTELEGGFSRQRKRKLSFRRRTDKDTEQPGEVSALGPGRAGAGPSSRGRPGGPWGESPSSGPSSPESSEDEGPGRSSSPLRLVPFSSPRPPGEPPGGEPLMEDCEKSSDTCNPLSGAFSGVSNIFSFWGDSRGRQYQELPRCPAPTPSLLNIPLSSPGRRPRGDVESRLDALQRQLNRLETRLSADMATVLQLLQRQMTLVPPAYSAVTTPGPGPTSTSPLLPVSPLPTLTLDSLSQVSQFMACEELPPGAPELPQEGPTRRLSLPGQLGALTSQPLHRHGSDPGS
Procedure Summary: Table 12 panel: hERG binding
Parameters: expressed in transfected cells
Condition Parameters: human recombinant hERG potassium channel (binding assay), I[Kr] (hERG) (hr), 1.0E−6, average N=2, read-out: percentage inhibition of specific binding
From the text: The percentage inhibition (average; N=2) for these receptors is shown below in Table 12. Values in Table 12 are expressed as percentage inhibition of specific binding, and these values represent the average of replicate tubes at each of the concentrations tested.
Property Label: inhibition at 1 µM (%)

# Compound, Property Label, Value Units, Number
measured = [
    ("CC(CC(=O)O)N1CCC(=C2c3ccc(F)cc3COc3ccccc32)CC1 (stereo not shown) [Compound 37]", "inhibition at 1 µM", "%", -5.23),
]

----------
Measurement Target: H1 histamine receptor (Bos taurus, UniProt P30546)
Construct: the receptors were obtained from bovine cerebellar membrane tissue; from tissue; host or cells: bovine cerebellar membranes
Sequence (P30546 whole entry): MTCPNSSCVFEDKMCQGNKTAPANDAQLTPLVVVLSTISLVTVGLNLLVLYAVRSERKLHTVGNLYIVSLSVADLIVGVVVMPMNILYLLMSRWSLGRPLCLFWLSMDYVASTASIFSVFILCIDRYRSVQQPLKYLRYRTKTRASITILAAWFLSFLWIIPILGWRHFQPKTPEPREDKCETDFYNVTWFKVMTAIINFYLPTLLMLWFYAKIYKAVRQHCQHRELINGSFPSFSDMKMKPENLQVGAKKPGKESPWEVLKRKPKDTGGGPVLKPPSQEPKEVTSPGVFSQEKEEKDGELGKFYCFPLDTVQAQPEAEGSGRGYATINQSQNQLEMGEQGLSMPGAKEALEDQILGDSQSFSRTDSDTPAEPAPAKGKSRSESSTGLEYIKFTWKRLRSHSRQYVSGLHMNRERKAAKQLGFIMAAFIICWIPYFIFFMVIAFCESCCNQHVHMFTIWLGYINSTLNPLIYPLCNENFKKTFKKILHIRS
Procedure Summary: Histamine H1 competitive binding assay ([3H]pyrilamine)
Design: species or system bovine
Condition Parameters: bovine receptor; read-out: H1 binding
Property Label: Ki

# Structure As Smiles, Property Label, Result
data = [
    ("COc1ccc2c(c1)COc1ccc(F)cc1C2=C1CCN(CCCC(=O)O)CC1", "Ki", "22.5 nM"),
    ("COc1ccc2c(c1)COc1ccc(F)cc1C2=C1CCN(CCC(=O)O)CC1", "Ki", "52.3 nM"),
    ("COc1ccc2c(c1)COc1ccc(F)cc1C2=C1CCN(CC2(C(=O)O)CC2)CC1", "Ki", "19.8 nM"),
]

----------
Measurement Target: Adrenergic, Alpha 1, Non-selective
Procedure Summary: Table 12 panel: Adrenergic, Alpha 1
Condition Parameters: read-out: α1 binding
# Ki values compiled below

# Structure As Smiles, Qualifier Symbol, Ki (nM)
data = [
    ("COc1ccc2c(c1)COc1ccc(F)cc1C2=C1CCN(CCCC(=O)O)CC1", "=", 1090),
    ("COc1ccc2c(c1)COc1ccc(F)cc1C2=C1CCN(CC2(C(=O)O)CC2)CC1", ">", 10000),
    ("COc1ccc2c(c1)COc1ccc(F)cc1C2=C1CCN(CCC(=O)O)CC1", "=", 2850),
]

----------
Procedure Summary: Plasma pharmacokinetics in dogs
Format: in vivo
Condition Parameters: dog, 3 mg/kg
Property Label: half-life (h)

# Molecule, Value Units, Number
rows = [
    ("CC(C)(CN1CCC(=C2c3ccc(F)cc3COc3ccccc32)CC1)C(=O)O [Compound 49a]", "h", 4.2),
]

----------
System: adult male Wistar rats
Procedure Summary: SCORE-2000 sleep-wakefulness, locomotor activity and body temperature monitoring
Assay type: in vivo, rat
Condition Parameters: dose 3 mg/kg oral at CT-18
# NREM annotations

# Molecule, NREM [min]
records = [
    ("COc1ccc2c(c1)COc1ccc(F)cc1C2=C1CCN(CC(C)(C)C(=O)O)CC1 [Compound 47a]", 32.3),
    ("COc1ccc2c(c1)COc1ccc(OC)cc1C2=C1CCN(CC(C)(C)C(=O)O)CC1 [Compound 10a]", -8.9),
    ("COc1ccc2c(c1)COc1ccccc1C2=C1CCN(CC(C)(C)C(=O)O)CC1 [Compound 50a]", 12.7),
    ("COc1ccc2c(c1)COc1ccccc1C2=C1CCN(CC2(C(=O)O)CC2)CC1 [Compound 50b]", 10.7),
]

----------
Procedure Summary: 14-day rat study with recovery
Assay type: in vivo
Condition Parameters: both sexes, Crl:CD(SD)IGS BR, rat, in vivo, po
Property Label: NOAEL at 14 days (mg/kg/day)

# Compound, Property Label, Value Units, Number
rows = [
    ("CC(C)(CN1CCC(=C2c3ccc(F)cc3COc3ccccc32)CC1)C(=O)O [Compound 49a]", "NOAEL at 14 days", "mg/kg/day", 30),
]

----------
Measurement Target: M1 muscarinic receptor (Homo sapiens)
Sequence (P11229 whole entry): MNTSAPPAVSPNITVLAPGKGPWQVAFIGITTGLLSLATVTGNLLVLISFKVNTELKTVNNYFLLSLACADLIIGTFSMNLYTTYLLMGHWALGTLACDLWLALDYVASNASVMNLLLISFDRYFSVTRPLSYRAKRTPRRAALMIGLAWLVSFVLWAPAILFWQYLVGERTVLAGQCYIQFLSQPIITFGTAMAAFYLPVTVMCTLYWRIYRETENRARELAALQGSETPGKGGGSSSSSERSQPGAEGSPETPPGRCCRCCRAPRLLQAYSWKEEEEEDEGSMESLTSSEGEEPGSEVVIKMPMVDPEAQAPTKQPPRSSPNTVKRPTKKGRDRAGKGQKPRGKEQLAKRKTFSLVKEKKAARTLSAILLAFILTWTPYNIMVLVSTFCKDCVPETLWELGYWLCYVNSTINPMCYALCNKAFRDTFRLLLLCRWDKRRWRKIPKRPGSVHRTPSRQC
Property Label: IC50

# Compound, Measurement Target, Result
rows = [
    ("CC(CC(=O)O)N1CCC(=C2c3ccc(F)cc3COc3ccccc32)CC1 (stereo not shown)", "M1 muscarinic receptor (Homo sapiens)", "> 10 µM"),
]

----------
Measurement Target: M3 muscarinic receptor (Homo sapiens)
Sequence (P20309 whole entry): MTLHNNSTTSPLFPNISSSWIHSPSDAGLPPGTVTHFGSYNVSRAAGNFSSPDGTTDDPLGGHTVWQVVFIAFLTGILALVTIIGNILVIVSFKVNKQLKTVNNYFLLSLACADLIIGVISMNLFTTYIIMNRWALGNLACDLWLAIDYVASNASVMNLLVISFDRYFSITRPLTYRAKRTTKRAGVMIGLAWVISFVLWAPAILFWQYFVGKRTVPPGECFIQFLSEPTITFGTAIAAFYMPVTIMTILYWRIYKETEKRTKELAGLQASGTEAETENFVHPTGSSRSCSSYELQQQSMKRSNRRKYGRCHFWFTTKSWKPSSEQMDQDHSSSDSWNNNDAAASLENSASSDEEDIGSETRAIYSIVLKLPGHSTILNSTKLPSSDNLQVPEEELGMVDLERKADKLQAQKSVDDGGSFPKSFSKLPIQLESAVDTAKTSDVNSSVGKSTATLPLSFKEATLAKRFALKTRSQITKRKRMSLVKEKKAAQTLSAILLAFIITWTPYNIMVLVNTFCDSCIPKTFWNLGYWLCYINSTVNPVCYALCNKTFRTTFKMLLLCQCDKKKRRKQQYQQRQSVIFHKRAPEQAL
pIC50: −log10 of the molar value.

# Compound, pIC50
records = [
    ("CC(CC(=O)O)N1CCC(=C2c3ccc(F)cc3COc3ccccc32)CC1 (stereo not shown) [Compound 37]", "< 5.00"),
]

----------
Test system: adult male Wistar rats
Procedure Summary: SCORE-2000 sleep-wakefulness, locomotor activity and body temperature monitoring
Type: in vivo, rat
Condition Parameters: dose 3 mg/kg oral at CT-18
Response field label: string, one of T (NREM strictly below 20 min) or F.

# Molecule, Measurement Target, Label Value
records = [
    ("COc1ccc2c(c1)C(=C1CCN(CC(C)(C)C(=O)O)CC1)c1ccc(F)cc1CO2 [Compound 46a]", "adult male Wistar rats", "T"),
    ("CC(C)(CN1CCC(=C2c3ccccc3COc3ccc(F)cc32)CC1)C(=O)O [Compound 53a]", "adult male Wistar rats", "F"),
    ("O=C(O)C1(CN2CCC(=C3c4ccccc4COc4ccccc43)CC2)CC1 [Compound 69b]", "adult male Wistar rats", "T"),
    ("CC(C)(CCN1CCC(=C2c3ccc(F)cc3COc3ccccc32)CC1)C(=O)O [Compound 61a]", "adult male Wistar rats", "T"),
    ("O=C(O)C1(CN2CCC(=C3c4ccc(F)cc4COc4ccccc43)CC2)CC1 [Compound 49b]", "adult male Wistar rats", "F"),
    ("CC(C)(CCN1CCC(=C2c3ccc(Cl)cc3COc3ccccc32)CC1)C(=O)O [Compound 68a]", "adult male Wistar rats", "F"),
    ("O=C(O)CCCN1CCC(=C2c3ccccc3COc3ccccc32)CC1 [Compound 70e]", "adult male Wistar rats", "F"),
    ("O=C(O)CCN1CCC(=C2c3ccccc3COc3ccccc32)CC1 [Compound 69e]", "adult male Wistar rats", "F"),
]

----------
Measurement Target: hERG (Homo sapiens, UniProt Q12809)
Condition Parameters: human, 10 µM, pH 7.4
Property Label: hERG at micromolar (% blocking of the hERG channel) (% @ 10)

# Compound, Number
records = [
    ("O=C(O)C1(CCN2CCC(=C3c4ccc(Cl)cc4COc4ccccc43)CC2)CC1 [Compound 59b]", 28),
    ("O=C(O)C1(CN2CCC(=C3c4ccc(F)cc4COc4ccccc43)CC2)CC1 [Compound 49b]", 3.1),
    ("O=C(O)C1(CN2CCC(=C3c4ccccc4COc4ccccc43)CC2)CC1 [Compound 69b]", 12.6),
    ("COc1ccc2c(c1)COc1ccccc1C2=C1CCN(CCC(C)(C)C(=O)O)CC1 [Compound 62a]", 13.6),
]

----------
System: male Wistar rats
Format: in vivo
Condition Parameters: rat, in vivo
Property Label: Irwin at mg/kg dose

# Compound, Result
measured = [
    ("O=C(O)CN1CCC(=C2c3ccccc3COc3ccccc32)CC1 [Compound 71e]", "10, 30 clean; 100 many side effects"),
    ("COc1ccc2c(c1)COc1ccccc1C2=C1CCN(CC(C)(C)C(=O)O)CC1 [Compound 50a]", "clean"),
    ("O=C(O)C1(CN2CCC(=C3c4ccccc4COc4ccccc43)CC2)CC1 [Compound 69b]", "clean"),
    ("O=C(O)C1(CCN2CCC(=C3c4ccc(Cl)cc4COc4ccccc43)CC2)CC1 [Compound 59b]", "clean"),
    ("O=C(O)CCCN1CCC(=C2c3ccccc3COc3ccccc32)CC1 [Compound 70e]", "10, 30 clean; 100 some side effects"),
    ("CC(C)(CCN1CCC(=C2c3ccccc3COc3ccccc32)CC1)C(=O)O [Compound 70a]", "clean"),
]

----------
Measurement Target: human 5HT2a receptor (Homo sapiens)
Sequence (P28223 whole entry): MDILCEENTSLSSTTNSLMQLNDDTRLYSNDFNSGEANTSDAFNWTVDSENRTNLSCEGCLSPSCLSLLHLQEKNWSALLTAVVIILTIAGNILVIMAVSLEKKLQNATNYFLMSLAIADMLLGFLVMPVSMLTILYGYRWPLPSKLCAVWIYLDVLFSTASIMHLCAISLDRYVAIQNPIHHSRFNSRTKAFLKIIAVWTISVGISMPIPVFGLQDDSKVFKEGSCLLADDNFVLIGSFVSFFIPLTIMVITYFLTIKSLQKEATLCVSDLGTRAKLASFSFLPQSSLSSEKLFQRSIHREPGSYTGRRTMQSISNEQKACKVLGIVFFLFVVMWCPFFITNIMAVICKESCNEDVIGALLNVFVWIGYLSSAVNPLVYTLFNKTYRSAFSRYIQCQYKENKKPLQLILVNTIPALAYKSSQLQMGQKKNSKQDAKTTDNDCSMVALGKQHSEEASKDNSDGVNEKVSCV
// reported Ki per item

# Compound, Measurement Target, Ki
measured = [
    ("COc1ccc2c(c1)COc1ccc(F)cc1C2=C1CCN(CCC(=O)O)CC1 [Compound 10518]", "human 5HT2a receptor (Homo sapiens)", "422 nM"),
    ("COc1ccc2c(c1)COc1ccc(F)cc1C2=C1CCN(CC2(C(=O)O)CC2)CC1 [Compound 10519]", "human 5HT2a receptor (Homo sapiens)", "541 nM"),
    ("COc1ccc2c(c1)COc1ccc(F)cc1C2=C1CCN(CCCC(=O)O)CC1 [Compound 10520]", "human 5HT2a receptor (Homo sapiens)", "396 nM"),
]

----------
The listing below reports hERG at micromolar (% blocking of the hERG channel) for molecules tested on hERG (Homo sapiens, UniProt Q12809).
Property Label: hERG at micromolar (% blocking of the hERG channel) (% @ 1)

# Molecule, Value Units, Number
measured = [
    ("O=C(O)CN1CCC(=C2c3ccccc3COc3ccccc32)CC1 [Compound 71e]", "% @ 1", 3.6),
    ("O=C(O)CCN1CCC(=C2c3ccccc3COc3ccccc32)CC1 [Compound 69e]", "% @ 1", "−1.4"),
    ("O=C(O)CCCN1CCC(=C2c3ccccc3COc3ccccc32)CC1 [Compound 70e]", "% @ 1", 2.7),
]

Values from patent US7326721B2
